Assay: physchem
Conditions: water
READOUT_TYPE: solubility (mM)

sample_smiles=OC[C@H]1O[C@@H]2O[C@H]3[C@H](O)[C@@H](O)[C@@H](O[C@H]4[C@H](O)[C@@H](O)[C@@H](O[C@H]5[C@H](O)[C@@H](O)[C@@H](O[C@H]6[C@H](O)[C@@H](O)[C@@H](O[C@H]7[C@H](O)[C@@H](O)[C@@H](O[C@H]8[C@H](O)[C@@H](O)[C@@H](O[C@H]9[C@H](O)[C@@H](O)[C@@H](O[C@H]1[C@H](O)[C@H]2O)O[C@@H]9CO)O[C@@H]8CO)O[C@@H]7CO)O[C@@H]6CO)O[C@@H]5CO)O[C@@H]4CO)O[C@@H]3CO quantitative_result=168

The reported numbers originate from patent US4877774A.
